Target: ScMyo5
Assay: SPOT peptide array binding signal intensity (averaged, normalized) (arbitrary units (background-subtracted, floor 0; scale differs between SH3 domains)); higher = stronger binding of the SH3 domain to the peptide
Assignment: determine reported SPOT peptide array binding signal intensity for the given binders.
One number for each entry.

Please review the following examples before continuing.
• KNPRRQLQIPRQQPS = 1
• ISPPASPPPEFDFSK = 428
• GERSRPLVISILSSA = 1

List SPOT peptide array binding signal intensity for every entry below, keeping the order given.
1. TIRRRAPLSLLESHT
2. VDFTLPPPPPPPGLD

Response:
1. 1
2. 1800
